assay: Retardation factor, Rf value of the compound using BuOH-AcOH-H20 at 4:1:1 ratio by ninhydrin; type: physicochemical
reported-metric: Rf

{"structure-smiles": "CCCC[C@H](NC(=O)[C@@H](O)[C@H](N)Cc1ccccc1)C(=O)O", "Rf": 0.47}
{"structure-smiles": "Cc1ccc(C[C@@H](N)[C@@H](O)C(=O)N[C@@H](CC(C)C)C(=O)O)cc1", "Rf": 0.53}
{"structure-smiles": "CC(C)C[C@@H](NC(=O)[C@H](O)[C@@H](N)Cc1ccccc1)C(=O)O", "Rf": 0.48}

A: CC(C)C[C@H](NC(=O)[C@H](O)[C@H](N)c1ccccc1)C(=O)O
B: CC(C)C[C@H](NC(=O)[C@H](O)[C@@H](C)N)C(=O)O
C: CC(C)C[C@H](NC(=O)[C@@H](O)CN)C(=O)O
*Q* Order the items by recorded Rf; the first position goes to the largest value. Put the labels in the requested order and write them down.
*A* A, B, C
(A: 0.38, B: 0.23, C: 0.13)

I: CC(C)C[C@H](NC(=O)[C@@H](O)[C@H](N)Cc1ccccc1)C(=O)NCC(=O)O
II: CC(C)C[C@H](NC(=O)[C@H](O)[C@H](N)Cc1ccccc1)C(=O)O
*Q* I or II : whose Rf is greater? Answer by quoting the chosen item's label.
*A* II
